Target: PKR K410E (Homo sapiens, UniProt P30613, K410E)
Sequence (P30613 whole entry K410E): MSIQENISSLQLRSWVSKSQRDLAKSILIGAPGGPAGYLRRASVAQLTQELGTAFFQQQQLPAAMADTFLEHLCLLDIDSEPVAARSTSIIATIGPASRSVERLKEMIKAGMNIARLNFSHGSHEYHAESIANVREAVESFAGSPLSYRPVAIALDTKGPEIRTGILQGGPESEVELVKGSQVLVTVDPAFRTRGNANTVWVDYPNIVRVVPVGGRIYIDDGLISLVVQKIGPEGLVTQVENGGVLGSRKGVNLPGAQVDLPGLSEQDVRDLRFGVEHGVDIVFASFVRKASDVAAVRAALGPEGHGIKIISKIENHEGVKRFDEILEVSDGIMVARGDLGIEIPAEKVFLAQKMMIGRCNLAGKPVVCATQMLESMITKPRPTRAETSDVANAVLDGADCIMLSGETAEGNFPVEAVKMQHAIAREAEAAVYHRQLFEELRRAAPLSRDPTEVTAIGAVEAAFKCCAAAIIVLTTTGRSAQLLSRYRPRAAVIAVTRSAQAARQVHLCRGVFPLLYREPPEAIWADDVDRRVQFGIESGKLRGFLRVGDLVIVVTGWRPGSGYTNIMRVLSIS
Assay: PKR Mutant Assay (K410E), LDH-coupled, absorbance 340 nm
Assay type: biochemical
Details: mutant PKR K410E enzyme activation
Catalogue of AC50 readings, one per entry.

Prompt: Reported AC50, compound COc1cccc(Cn2ncc3c4ccc(C#N)cc4n(C)c3c2=O)c1 [Cpd 47] : ____
Response: < 300 nM

Prompt: Reported AC50, compound COc1cccc(Cn2ncc3c(c(C)n4cc(C)sc34)c2=O)c1 [Cpd 9] : ____
Response: < 300 nM

Prompt: Reported AC50, compound COc1cccc(Cn2ncc3c4cc(Br)ccc4n(C)c3c2=O)c1 [Cpd 36] : ____
Response: > 800 nM

Prompt: Reported AC50, compound Cn1cc(S(=O)(=O)c2ccc3c4cnn(Cc5cccc(C(N)=O)c5)c(=O)c4n(C)c3c2)cn1 [Cpd 56] : ____
Response: < 300 nM
